FYI, the data here is from paper PMC5431342.

# measurement target: ADAM10 (Homo sapiens, UniProt O14672)
# Construct: purchased R&D Systems 936-AD
# assay remarks: ADAM10 kinetic assays, determination of inhibition type and mechanism
# Format: biochemical
# condition description: apparent potency at steady-state velocity; read-out: appKi*
measurement type: Ki (nM)
Give the quantity in nM, number only.

The compound listed as COc1cccc(C(=O)NNC(=O)C(=O)Nc2ccc(C)c(Cl)c2)c1 [CID 3117694] has a reported Ki of 330

---

# measurement target: ADAM10 (Homo sapiens, UniProt O14672)
# Construct: purchased R&D Systems 936-AD
# Sequence (O14672 214-748): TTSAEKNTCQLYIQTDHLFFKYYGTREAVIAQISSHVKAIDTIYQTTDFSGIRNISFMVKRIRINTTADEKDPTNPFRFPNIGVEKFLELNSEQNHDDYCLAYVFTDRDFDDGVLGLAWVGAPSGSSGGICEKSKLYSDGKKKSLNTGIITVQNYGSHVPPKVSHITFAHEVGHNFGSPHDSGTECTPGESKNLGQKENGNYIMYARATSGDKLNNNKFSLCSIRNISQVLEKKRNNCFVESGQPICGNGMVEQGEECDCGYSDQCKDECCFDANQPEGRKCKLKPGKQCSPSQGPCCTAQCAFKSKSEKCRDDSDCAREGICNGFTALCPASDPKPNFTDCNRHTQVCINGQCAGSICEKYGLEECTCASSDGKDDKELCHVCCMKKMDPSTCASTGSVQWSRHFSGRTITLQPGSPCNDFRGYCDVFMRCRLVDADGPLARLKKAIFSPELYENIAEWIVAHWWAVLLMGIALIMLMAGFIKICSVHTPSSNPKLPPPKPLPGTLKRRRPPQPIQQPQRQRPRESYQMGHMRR
# assay remarks: ADAM10 kinetic assays, determination of inhibition type and mechanism
# Format: biochemical
# condition description: binding affinity for free enzyme; read-out: Ki
measurement type: pKi
pKi field: float, defined as -log10 of concentration (mol/L).

The compound listed as COc1cccc(C(=O)NNC(=O)C(=O)Nc2ccc(C)c(Cl)c2)c1 has a reported pKi of 6.05

---

# measurement target: ADAM10 (Homo sapiens, UniProt O14672)
# Construct: purchased R&D Systems 936-AD
# assay remarks: ADAM10 glycosylated substrate uHTS/HTS assay
# Format: biochemical
# condition description: 1 h pre-incubation
measurement type: pIC50
pIC50 field: float, defined as -log10 of concentration (mol/L).

The compound listed as COc1cccc(C(=O)NNC(=O)C(=O)Nc2ccc(C)c(Cl)c2)c1 [CID 3117694] has a reported pIC50 of 6.15

---

# measurement target: ADAM10 (Homo sapiens)
# Construct: purchased R&D Systems 936-AD
# Sequence (O14672 214-748): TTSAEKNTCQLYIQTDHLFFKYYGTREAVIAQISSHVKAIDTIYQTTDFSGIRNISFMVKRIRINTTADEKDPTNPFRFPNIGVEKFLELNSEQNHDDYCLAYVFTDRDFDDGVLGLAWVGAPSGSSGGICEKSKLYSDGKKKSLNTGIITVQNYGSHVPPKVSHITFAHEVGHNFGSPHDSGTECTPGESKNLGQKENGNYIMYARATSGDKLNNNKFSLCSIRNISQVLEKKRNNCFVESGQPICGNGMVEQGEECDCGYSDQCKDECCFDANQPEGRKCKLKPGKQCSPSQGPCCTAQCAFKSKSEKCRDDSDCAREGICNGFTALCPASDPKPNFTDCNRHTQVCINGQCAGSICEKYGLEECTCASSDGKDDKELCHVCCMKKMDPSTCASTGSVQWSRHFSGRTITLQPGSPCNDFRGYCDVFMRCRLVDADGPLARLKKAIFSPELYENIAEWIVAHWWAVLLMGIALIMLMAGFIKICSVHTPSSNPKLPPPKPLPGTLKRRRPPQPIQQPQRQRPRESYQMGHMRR
# assay remarks: ADAM10 glycosylated substrate uHTS/HTS assay
# Format: biochemical
# condition description: 1536 well plate format
measurement type: IC50
Just so you know, I need the unit written after the number.

The compound listed as CNC(=O)[C@@H](NC(=O)[C@H](CC(C)C)[C@H](O)C(=O)NO)C(C)(C)C [marimastat, reference compound] has a reported IC50 of 20 nM

---

# measurement target: ADAM10 (Homo sapiens, UniProt O14672)
# Construct: purchased R&D Systems 936-AD
# Sequence (O14672 214-748): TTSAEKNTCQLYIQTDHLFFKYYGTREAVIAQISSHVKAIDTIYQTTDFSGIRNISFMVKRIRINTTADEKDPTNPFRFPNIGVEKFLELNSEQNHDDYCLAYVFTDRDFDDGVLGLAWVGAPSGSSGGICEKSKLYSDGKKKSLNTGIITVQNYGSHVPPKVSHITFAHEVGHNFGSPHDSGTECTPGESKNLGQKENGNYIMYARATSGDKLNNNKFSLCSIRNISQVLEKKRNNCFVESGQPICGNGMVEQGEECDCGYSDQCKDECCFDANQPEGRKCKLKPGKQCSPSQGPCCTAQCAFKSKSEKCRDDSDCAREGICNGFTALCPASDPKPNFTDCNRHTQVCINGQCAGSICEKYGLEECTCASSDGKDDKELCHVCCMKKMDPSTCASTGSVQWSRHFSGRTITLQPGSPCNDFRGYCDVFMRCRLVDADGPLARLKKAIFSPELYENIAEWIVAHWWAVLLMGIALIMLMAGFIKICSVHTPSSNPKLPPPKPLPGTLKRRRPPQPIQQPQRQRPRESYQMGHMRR
# assay remarks: ADAM10 glycosylated substrate uHTS/HTS assay
# Assay type: biochemical
# condition description: 384 well plate format
measurement type: IC50 (nM)
Give the quantity in nM, number only.

IC50 on ADAM10 (Homo sapiens, UniProt O14672) for CNC(=O)[C@@H](NC(=O)[C@H](CC(C)C)[C@H](O)C(=O)NO)C(C)(C)C [marimastat, reference compound] is 33

---

# measurement target: ADAM10 (Homo sapiens)
# Construct: purchased R&D Systems 936-AD
# Sequence (O14672 214-748): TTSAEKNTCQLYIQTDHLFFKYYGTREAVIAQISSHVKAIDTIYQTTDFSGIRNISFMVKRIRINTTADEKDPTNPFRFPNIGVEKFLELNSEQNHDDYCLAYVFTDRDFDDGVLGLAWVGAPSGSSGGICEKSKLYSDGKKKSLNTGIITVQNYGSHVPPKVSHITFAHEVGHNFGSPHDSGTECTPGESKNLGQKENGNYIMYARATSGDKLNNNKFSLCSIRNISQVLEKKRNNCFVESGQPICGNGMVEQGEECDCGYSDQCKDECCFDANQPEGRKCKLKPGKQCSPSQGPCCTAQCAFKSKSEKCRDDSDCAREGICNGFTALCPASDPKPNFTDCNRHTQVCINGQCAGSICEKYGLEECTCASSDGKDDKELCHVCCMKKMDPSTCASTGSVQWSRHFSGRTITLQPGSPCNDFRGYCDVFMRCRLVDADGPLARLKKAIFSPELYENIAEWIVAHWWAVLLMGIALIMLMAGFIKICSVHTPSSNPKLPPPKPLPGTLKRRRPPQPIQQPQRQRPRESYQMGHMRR
# assay remarks: ADAM10 non-glycosylated substrate assay
# Format: biochemical
# condition description: non-glycosylated substrate
pIC50: −log10 of the molar value.
measurement type: pIC50

The compound listed as COc1cccc(C(=O)NNC(=O)C(=O)Nc2ccc(C)c(Cl)c2)c1 has a reported pIC50 of < 4.00

---

# measurement target: ADAM10 (Homo sapiens)
# Construct: purchased R&D Systems 936-AD
# assay remarks: ADAM10 kinetic assays, determination of inhibition type and mechanism
# Assay type: biochemical
# condition description: apparent potency at initial velocity, hyperbolic two-step model; read-out: appKi
measurement type: pKi
pKi field: float, defined as -log10 of concentration (mol/L).

The compound listed as COc1cccc(C(=O)NNC(=O)C(=O)Nc2ccc(C)c(Cl)c2)c1 has a reported pKi of 5.87

---

# measurement target: ADAM10 (Homo sapiens)
# Construct: purchased R&D Systems 936-AD
# Sequence (O14672 214-748): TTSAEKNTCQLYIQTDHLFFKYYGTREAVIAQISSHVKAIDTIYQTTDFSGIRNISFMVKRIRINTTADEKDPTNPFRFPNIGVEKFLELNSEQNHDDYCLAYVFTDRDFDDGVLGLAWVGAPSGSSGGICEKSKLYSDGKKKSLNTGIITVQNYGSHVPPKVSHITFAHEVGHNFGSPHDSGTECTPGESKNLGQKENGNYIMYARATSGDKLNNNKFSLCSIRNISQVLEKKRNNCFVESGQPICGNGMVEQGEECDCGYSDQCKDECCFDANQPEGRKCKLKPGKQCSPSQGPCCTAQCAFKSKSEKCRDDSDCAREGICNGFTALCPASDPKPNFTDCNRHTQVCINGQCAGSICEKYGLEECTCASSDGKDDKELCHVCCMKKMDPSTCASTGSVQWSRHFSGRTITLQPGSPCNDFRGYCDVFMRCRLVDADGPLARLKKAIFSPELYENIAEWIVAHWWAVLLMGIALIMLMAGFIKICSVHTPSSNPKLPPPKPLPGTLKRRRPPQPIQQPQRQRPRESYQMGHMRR
# assay remarks: ADAM10 glycosylated substrate uHTS/HTS assay
# Assay type: biochemical
# condition description: no pre-incubation with ADAM10
measurement type: pIC50
pIC50 field: float, defined as -log10 of concentration (mol/L).

The molecule listed as COc1cccc(C(=O)NNC(=O)C(=O)Nc2ccc(C)c(Cl)c2)c1 [CID 3117694] has a reported pIC50 of 4.40
